# protocol-description: Sensory evaluation of Vermont drink containing the agent
# condition-details: 100 ppt, ten panels
quantity: N: number of panels, irritation of acid reduced to give a mild acid taste
Give bare numbers.

Worked set:
{"compound": "CCCCC/C=C/C/C=C/CCC=O [(E,E)-4,7-tridecadienal]", "numeric-readout": 7}
{"compound": "CCCCC/C=C\\C/C=C/CCC=O [(E,Z)-4,7-tridecadienal]", "numeric-readout": 7}
{"compound": "CCCCC/C=C/C/C=C\\CCC=O [(Z,E)-4,7-tridecadienal]", "numeric-readout": 8}

Hi, could you look up N: number of panels, irritation of acid reduced to give a mild acid taste for each item in my list?
1. CCCCC/C=C\C/C=C\C=C\C=O [(E,Z,Z)-2,4,7-tridecatrienal]
2. CCCCC/C=C\C/C=C/C=C/C=O [(E,E,Z)-2,4,7-tridecatrienal]
3. CCCCC/C=C\C/C=C\CCC=O [(Z,Z)-4,7-tridecadienal]
4. CCCCC/C=C/C/C=C\C=C\C=O [(E,Z,E)-2,4,7-tridecatrienal]
5. CCCCC/C=C/C/C=C/C=C/C=O [(E,E,E)-2,4,7-tridecatrienal]

Result block:
1: 4; 2: 7; 3: 4; 4: 8; 5: 6

* * *

# protocol-description: Sensory evaluation of Vermont drink containing the agent
# condition-details: 50 ppb, ten panels
So I've got a bunch of compounds here, and I need their A: number of panels, acid taste/acid smell extreme and cause irritation values.
Answers are plain numbers.

// known answers, use as guide
{"compound": "CCCCC/C=C/C/C=C/CCC=O [(E,E)-4,7-tridecadienal]", "numeric-readout": 0}
{"compound": "CCCCC/C=C/C/C=C\\C=C\\C=O [(E,Z,E)-2,4,7-tridecatrienal]", "numeric-readout": 0}

Now consider the entry below.
Query block: Any idea what A: number of panels, acid taste/acid smell extreme and cause irritation was measured for CCCCC/C=C\C/C=C/C=C/C=O [(E,E,Z)-2,4,7-tridecatrienal] ?
Result block: 0

* * *

# protocol-description: Sensory evaluation of Vermont drink containing the agent
# condition-details: 5 ppt, ten panels
# Description: Water was added to a mixture of 10 g of apple-cider vinegar (acetic acid: 4.8%), 3 g of honey, 7 g of fructose-glucose liquid sugar mixed with sugar, 0.02 g of citric acid, 0.002 g of trisodium citrate, and 0.1 g of a Vermont flavor (manufactured by T. Hasegawa Co., Ltd.) to give a total amount of 100 mL. […]
quantity: Flavor judgment: number of panels who judged acid taste/acid smell quality the highest
Numbers only.

{"compound": "CCCCC/C=C/C/C=C/CCC=O [(E,E)-4,7-tridecadienal]", "numeric-readout": 4}
{"compound": "CCCCC/C=C\\C/C=C/CCC=O [(E,Z)-4,7-tridecadienal]", "numeric-readout": 4}
{"compound": "CCCCC/C=C/C/C=C\\CCC=O [(Z,E)-4,7-tridecadienal]", "numeric-readout": 4}
{"compound": "CCCCC/C=C\\C/C=C\\CCC=O [(Z,Z)-4,7-tridecadienal]", "numeric-readout": 4}
{"compound": "CCCCC/C=C\\C/C=C/C=C/C=O [(E,E,Z)-2,4,7-tridecatrienal]", "numeric-readout": 3}

# map each compound to its Flavor judgment: number of panels who judged acid taste/acid smell quality the highest
1. CCCCC/C=C/C/C=C/C=C/C=O [(E,E,E)-2,4,7-tridecatrienal]
2. CCCCC/C=C\C/C=C\C=C\C=O [(E,Z,Z)-2,4,7-tridecatrienal]
3. CCCCC/C=C/C/C=C\C=C\C=O [(E,Z,E)-2,4,7-tridecatrienal]

Result block:
1. 2
2. 3
3. 4
